Hi there, I'd appreciate the recorded IC50 for every entry that follows.
subjectOfTest: APC (Homo sapiens)
Construct: begins at amino acid residue position 158 and ends at 419; The light chain is 155 amino acid residues in length; tissue Factor IX concentrate from Immuno AG, Vienna; thrombin from Enzyme Research Laboratories
Sequence (P04070 212-461): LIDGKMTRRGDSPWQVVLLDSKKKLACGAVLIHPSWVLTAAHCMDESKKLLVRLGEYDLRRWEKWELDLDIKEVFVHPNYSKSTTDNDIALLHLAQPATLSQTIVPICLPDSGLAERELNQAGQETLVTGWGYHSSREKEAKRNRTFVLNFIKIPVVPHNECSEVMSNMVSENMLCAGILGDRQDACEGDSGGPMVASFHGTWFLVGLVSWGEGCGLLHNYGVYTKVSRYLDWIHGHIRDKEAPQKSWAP
Sequence (P04070 43-197): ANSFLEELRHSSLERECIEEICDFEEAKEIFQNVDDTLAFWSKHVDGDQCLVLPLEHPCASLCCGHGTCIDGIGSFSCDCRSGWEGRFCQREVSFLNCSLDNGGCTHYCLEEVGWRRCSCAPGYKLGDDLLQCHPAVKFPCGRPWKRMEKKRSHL
experimentSummary: APC anticoagulant activity, APTT and Xa-1-stage coagulation assays (mean or both)
Assay type: biochemical
conditionInfo: final peptide concentration at which 50% inhibition of APC activity was observed
No end group written: not given here.
The reply should contain only the number, in µM.

Data request: Provide one value: measured IC50 of VSRYLDWIHGHIRDK-NH2 [peptide-(396-410), VSRYLDWIHGHIRDK]
Data returned: 70

Data request: Provide one value: measured IC50 of KRNRTFVLNFIKIPV-NH2 [peptide-(311-325), KRNRTFVLNFIKIPV]
Data returned: 20

Data request: Provide one value: measured IC50 of VLNFIKIPVVPHNEC-NH2 [peptide-(317-331), VLNFIKIPVVPHNEC]
Data returned: 500

Data request: Provide one value: measured IC50 of YGVYTKVSRYLDWIH-NH2 [peptide-(390-404), YGVYTKVSRYLDWIH]
Data returned: 5
